Test: modifiers of HSF1 nuclear foci, imaging, Selleck Cancer Library (AID 1347162)
Conditions: human cells, at 10 µM; active compounds read low
reported.metric: plate-normalised HSF1 focus index
Simply state the number, no unit and no words.

# annotated cases, reported plate-normalised HSF1 focus index shown
* CCC(C)(C)C(=O)O[C@H]1C[C@@H](C)C=C2C=C[C@H](C)[C@H](CC[C@@H]3C[C@@H](O)CC(=O)O3)[C@H]21 | 1.09
* Nc1ncn([C@@H]2O[C@H](CO)[C@@H](O)[C@H]2O)c(=O)n1 | 1.04
* O=C(O)CCCc1ccccc1 | 1.14

# input Param item = `O=C1[C@H](CC[C@H](O)c2ccc(F)cc2)[C@@H](c2ccc(O)cc2)N1c1ccc(F)cc1` ; retrieve measured plate-normalised HSF1 focus index.
# output 1.01

# input Item: `CC(=O)O[C@]1(C(C)=O)CC[C@H]2[C@@H]3C=C(C)C4=CC(=O)CC[C@]4(C)[C@H]3CC[C@@]21C`
# output 1.04
